The origin of these recorded values is PubChem BioAssay (NCI).

system: A498 renal; test: NCI tumour cell line growth inhibition, 48 h; in the data active = GI50 below about 0.43 µM; inactive = the rest
Where a SMILES comes first, the peptide text is derived from it.
Give one outcome, nothing more. List: active, inactive

COc1ccc(-c2ccc(C3CC(c4ccc(O)cc4)=NN3)o2)c([N+](=O)[O-])c1 (stereo unspecified); inactive
CC1=C(C)C(=O)c2c(c(C(=O)c3ccccc3)c3nc4ccccc4n3c2C)C1=O; inactive
COc1ccc(CN2C(=O)/C(=C\c3cc(OC)c(OC)c(OC)c3)c3cc(OC)ccc32)cc1; inactive
Oc1ccc(C(c2ccccc2)(c2ccccc2)c2ccccc2)cc1; inactive
CCC1=C(C)/C(=C/c2[nH]c(C)c(C(=O)CCCCC(=O)OC)c2C)N=C1c1ccc[nH]1; inactive

# input So what was the verdict on "Cc1ccc(Nc2nc(NCCO)c3ccccc3n2)cc1C" in this test?
# output active

# input So what was the verdict on "O=[N+]([O-])c1cnc(Sc2ccncn2)c([N+](=O)[O-])c1" in this test?
# output inactive

# input So what was the verdict on CC1NC(=O)CNC(=O)CNC(=O)C(Cc2ccc(O)cc2)NC(=O)C(C(C)C)NC(=O)C(C)NC1=O (stereo unspecified) (cyclo(GGAAVY); configuration not given here) in this test?
# output inactive

# input So what was the verdict on "O=C1/C(=C/c2cccc([N+](=O)[O-])c2)COc2ccc(O)c(O)c21" in this test?
# output inactive

# input So what was the verdict on "COc1cccc(-c2nn(-c3ccccc3)cc2-c2ccnc(NCCNS(=O)(=O)c3ccc(Cl)cc3)c2)c1" in this test?
# output inactive

# input So what was the verdict on O=C(CCN1CCN(c2cccc(Cl)c2)CC1)N1CCc2c([nH]c3ccccc23)C1c1cccnc1 (stereo unspecified) in this test?
# output inactive
